- targetEntity: FLAG-tagged human Ang2 (human) (UniProt O15123)
- Sequence (O15123 19-496): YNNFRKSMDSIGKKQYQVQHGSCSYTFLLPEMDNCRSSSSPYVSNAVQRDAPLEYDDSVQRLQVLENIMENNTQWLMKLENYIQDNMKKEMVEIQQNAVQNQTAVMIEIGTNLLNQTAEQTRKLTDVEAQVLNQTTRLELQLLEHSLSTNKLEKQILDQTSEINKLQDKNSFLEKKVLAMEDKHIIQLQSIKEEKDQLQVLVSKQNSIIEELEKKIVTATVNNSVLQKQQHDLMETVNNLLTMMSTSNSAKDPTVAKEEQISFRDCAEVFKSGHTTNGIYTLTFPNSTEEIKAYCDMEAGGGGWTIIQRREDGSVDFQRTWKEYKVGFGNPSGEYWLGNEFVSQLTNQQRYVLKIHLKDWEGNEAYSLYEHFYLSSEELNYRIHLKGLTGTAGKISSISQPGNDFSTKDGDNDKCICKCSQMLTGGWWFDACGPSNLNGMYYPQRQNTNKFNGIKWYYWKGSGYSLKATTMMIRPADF
- methodDescription: competition ELISA: FLAG-hAng2 binding to coated hTie2-Fc
pIC50: −log10 of the molar value.
Reported pIC50 values follow for various binders

binder: VHH 00049 (VHH, not shown: small tags and cut ends) VHH: EVQLVESGGGLVQPGGSLRLSCAASGFTFDDYALGWFRQAAGKEREGVSCIRCSDGSTYYADSVKGRFTISSDNSKNTVYLQMNSLRPEDTAVYYCAASIVPRSKLEPYEYDAWGQGTLVTVSS
pIC50: 8.16
//
binder: VHH 00931 (VHH, not shown: small tags and cut ends) VHH: EVQLVESGGGLVQPGGSLRLSCAASGFALDYYAIGWFRQAPGKEREGVSCISSSGGITYYADSVKGRFTISRDNSKNTVYLQMNSLRPEDTAVYYCATESGGYIDYDCSGLGYDYWGQGTLVTVSS
pIC50: 9.77
